All figures here come from PubChem BioAssay.

- Protocol notes: splicing luciferase reporter signal modulators, primary screen, spliceosome inhibition project, cell-based, HEK293, splice +/- reporter (AID 1101);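 note: HEK293 cells carrying a splicing-competent luciferase reporter gene; test concentration not given here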
- Condition summary: luminescence, 24 h, higher = more signal, called active from +8 up or from −8 down
Quick rule for you: z-score at 0.04 or higher means Y, lower means N.

C=C(COC)/C(=C/C[C@H](OC(=O)c1ccncc1)c1cccc(OCCO)c1)c1cnc2ccccc2c1	Y
CC(C)C[C@H]1NC(=O)[C@@]23C(=O)N[C@@H](Cc4ccccc4)C2[C@H](C)[C@@]2(C)O[C@H]2C3/C=C/C/C=C\CNC(=O)[C@@H]2CCCN2C1=O (some centres not stated)	Y
CC(C)[Si](C#CCCCC#N)(O[C@H](c1ccccc1)c1cn([C@H](C)c2ccccc2)nn1)C(C)C	N
COc1ccc(NC(=O)O[C@H]2[C@H](OC(=O)Nc3ccc4c(c3)OCO4)[C@H](OC(=O)Nc3ccc4c(c3)OCO4)[C@@H](OC)O[C@@H]2CO)cc1	N
C[C@H]1NC(=O)C([C@@H](C)OCc2ccccc2)NC(=O)[C@@]23C(=O)N[C@@H](Cc4ccccc4)C2[C@H](C)[C@@]2(C)O[C@H]2C3/C=C/C/C=C\CNC1=O (some centres not stated)	Y

(Q) Could you tell me if the measured z-score of C=CCC(OC(C)=O)[C@@H]1[C@@H](N(Cc2cccc3ccccc23)C(=O)c2ccc(-c3ccccc3)cc2)c2cc(OCCCO)ccc2N1C(=O)c1ccc2ccccc2n1 (some centres not stated) reaches 0.04 or more?
(A) N

(Q) # bool: z-score of `COCCCNC(=O)[C@@H]1c2ccccc2C(=O)N(C2CCCCC2)[C@H]1c1ccc(CO)cc1` >= 0.04
(A) N

---

- Protocol notes: small-molecule microarray binders of probe aDKK1, primary screen, biochemical, biotinylated probe, 635/667 nm fluorescence (AID 1099);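 note: score merges 667nm spot fluorescence with signal to noise across triplicate slides; reference of the scale not given here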
- Condition summary: higher = more signal
Measurement type: composite z-score
Number, no unit, nothing else.

Recorded composite z-score, per entry:
COc1cc2c(cc1O)C(c1ccc(CN3CCCC3)cc1)N(Cc1cccc(OC(F)(F)F)c1)CC2 (centres undefined)	0.422
COCCOC(=O)N1C(=O)[C@@]2(c3cc(C#CCC(C(=O)OC)C(=O)OC)ccc31)[C@H](C(=O)N1CCCCCCC1)[C@H]1C(=O)O[C@H](c3ccccc3)[C@H](c3ccccc3)N1[C@@H]2c1ccccc1OCCO	2.62
COc1ccc([Si](C)(C)[C@H]2[C@H](CCn3cc([C@H](O)c4ccccc4)nn3)O[C@@]3(C(=O)N(C)c4c(Br)cc(C)cc43)[C@@H]2C)cc1	-0.189
C=CCOC(=O)[C@@H]1[C@H]2C(=O)O[C@H](c3ccccc3)[C@H](c3ccccc3)N2[C@H](c2ccc(OCCOC(=O)[C@H]3C[C@H]4C(=O)NCC(=O)N4[C@H]3c3ccc(O)cc3)cc2)[C@@]12C(=O)Nc1ccc(I)cc12	0.159
CC(=O)n1cc(C(O)C2C=CC3C(=O)N(c4ccccc4)C(=O)C3N2Nc2ccccc2F)c2ccccc21 (centres undefined)	-0.167

(Q) If you can, please state the reported composite z-score value of `CCCC=C(CCC)[C@@H](NS(=O)(=O)c1ccc(Cl)cc1)c1ccccc1` .
(A) 0.619

(Q) Given the compound `CC(C)CNC(=O)[C@@]1(C)c2ccccc2C(=O)N(Cc2cc(F)cc(C(F)(F)F)c2)[C@H]1c1ccc(CO)cc1` , what is its reported composite z-score?
(A) -0.162

(Q) What value of composite z-score has been reported for the following compound? `COC(=O)[C@@]1(Cc2ccc(F)cc2)[C@H]2c3cc(C(=O)N(C)C)n(CCO)c3C[C@H]2CN1C(=O)c1ccccc1`
(A) 0.453

---

- Subject of test: Torsin-1A (Homo sapiens) (UniProt O14656)
- Sequence (O14656 whole entry, looked up): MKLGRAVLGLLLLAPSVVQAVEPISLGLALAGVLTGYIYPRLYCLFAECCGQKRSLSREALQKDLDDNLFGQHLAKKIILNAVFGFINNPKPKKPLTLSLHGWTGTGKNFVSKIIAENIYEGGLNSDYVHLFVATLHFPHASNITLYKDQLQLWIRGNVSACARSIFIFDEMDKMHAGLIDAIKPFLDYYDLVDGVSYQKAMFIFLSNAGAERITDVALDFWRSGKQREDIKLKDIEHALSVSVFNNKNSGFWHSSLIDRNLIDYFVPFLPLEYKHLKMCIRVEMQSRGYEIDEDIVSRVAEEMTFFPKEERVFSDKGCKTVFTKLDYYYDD
- Protocol notes: small-molecule binders of mutant TOR1A in lysate, primary screen, cell lysate, small-molecule microarray, COS7 lysate, 635/667 nm fluorescence (AID 1150);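 note: score pools 667 nm emission and signal to noise measuring lysate protein binding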
- Condition summary: COS7 hTOR1A mutant lysate, 635 nm fluorescence, higher = more signal
Known composite z-score of a selection of compounds
Please reply with the number alone, leaving off any unit.

O=C(NCC(F)(F)F)[C@@H]1c2ccccc2C(=O)N(CC23CC4CC(CC(C4)C2)C3)[C@H]1c1ccc(CO)cc1	0.438
CCOC(=O)C[C@H]1[C@H](OC(=O)c2ccc(-c3ccccc3)cc2)[C@@H](NC(=O)CC(C)C)c2cc(OCCCO)ccc2N1C(=O)Cc1ccc(OC)cc1	0.508
C=CC[C@@]12N=C(c3ccc(OCCCO)cc3)O[C@@H]1c1ccccc1N(Cc1ccccc1)C2=O	0.909

(Q) Using the record for `N[C@@H](Cc1ccccc1)Cn1cc(C2(O)CCCCC2)nn1` , report its composite z-score.
(A) -0.0257

(Q) # composite z-score lookup, item `C=CC[C@]1(C(=O)N(C)C)COC(c2ccc(OCCCO)cc2)=N1`
(A) 1.85

---

- Protocol notes: binders from COS7 lysate, DM2A8 probe, primary screen, torsin A project, cell lysate, small-molecule microarray, fluorescence 635/667 (AID 1065)
- Condition summary: higher = more signal, COS7 lysate expressing mutant human TOR1A
Measurement type: composite z-score

Some compounds with known composite z-score results, for comparison:
C=CCOC(=O)[C@H]1[C@@H]2C(=O)O[C@@H](c3ccccc3)[C@@H](c3ccccc3)N2[C@@H](c2ccc(OCCOC(=O)[C@@H]3C[C@@H]4C(=O)N[C@@H](Cc5ccccc5)C(=O)N4[C@@H]3c3ccc(O)cc3)cc2)[C@]12C(=O)Nc1ccccc12	0.268
COc1ccc([Si](C)(C)[C@H]2[C@H](CCO)O[C@@]3(C(=O)N(Cc4ccc(N5CCOC5=O)cc4)c4ccccc43)[C@@H]2C)cc1	0.306

Now let's try a different one.
(Q) Using the record for `COc1ccccc1CN1C(=O)c2ccccc2[C@@H](C(=O)NCCCN(C)C)[C@@H]1c1ccc(CO)cc1` , report its composite z-score.
(A) 0.132

---

Catalogue of z-score values
- Protocol notes: Plasmodium falciparum growth inhibition, primary screen, strain 3D7, DAPI fluorescence, 100 nL (AID 1184);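 note: parasites grown inside human red blood cells in medium with human serum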
- Condition summary: P. falciparum 3D7 growth, 3 d, higher = more signal

Some entries whose results are on file:
CCCC[C@@H](O)C1=C(COC)Cn2c(=O)n(-c3ccccc3)c(=O)n2[C@H]1CO	0.519
COc1ccc(CCNC(=O)[C@@]2(C)c3ccccc3C(=O)N(Cc3cc(C(F)(F)F)cc(C(F)(F)F)c3)[C@H]2c2ccc(CO)cc2)cc1	-1.88
COc1ccc([Si](C)(C)[C@@H]2[C@@H](CCO)O[C@]3(C(=O)N(Cc4ccccc4)c4ccc(N5C(=O)c6ccccc6Oc6ccccc65)cc43)[C@H]2C)cc1	-0.119
C[C@@H](OCc1ccccc1)C1NC(=O)[C@@]23C(=O)N[C@@H](Cc4ccccc4)C2[C@H](C)[C@@]2(C)O[C@H]2C3/C=C/C/C=C\CNC(=O)[C@H](Cc2ccccc2)NC1=O (stereo partly specified)	-2.45

(Q) Can you share its z-score? I mean this compound: `CC(C)(C)OC(=O)CC[C@]1(C(N)=O)N=C(c2ccc(OCCCO)cc2)O[C@H]1c1ccccc1CN=[N+]=[N-]`
(A) -0.176

(Q) Tell me the measured z-score of `O=C1O[C@H](c2ccccc2)[C@H](c2ccccc2)N2[C@H]1[C@@H](C(=O)N1CCN(c3ncccn3)CC1)[C@]1(C(=O)Nc3ccccc31)[C@H]2c1ccc(O)cc1` , please.
(A) -0.976

---

- Protocol notes: osmotic lysis modulators in infected erythrocytes, primary screen, PSAC antagonist project, cell-based, P. falciparum Indochina, OD700, 3 h (AID 1156)
- Condition summary: higher = more signal, called active from +8 up or from −8 down
Measurement type: z-score
// response body must contain only the number

COCCOC(=O)N1C(=O)[C@@]2(c3cc(C#Cc4ccc(OC)cc4)ccc31)[C@H](C(=O)Nc1nc3ccccc3s1)[C@H]1C(=O)O[C@H](c3ccccc3)[C@H](c3ccccc3)N1[C@@H]2c1ccccc1OCCO	0.953
COc1ccc(NC(=O)O[C@H]2[C@H](OC(=O)Nc3ccc4c(c3)OCO4)[C@H](OC(=O)Nc3ccc4c(c3)OCO4)[C@@H](OC)O[C@@H]2CO)cc1	0.99
NCCCC[C@@H]1NC(=O)[C@H]2C[C@@H](C(=O)O)[C@@H](c3cccc(OCCO)c3)N2C1=O	0.452

(Q) Looking for the measured z-score of `Cc1ccc(S[C@]2(C(=O)NCC(F)(F)F)CC(=O)N(C3CCCCC3)[C@@H]2c2ccc(CO)cc2)cc1` , can you help?
(A) 0.621

---

- Protocol notes: small-molecule microarray binders of probe aDKK1, primary screen, biochemical, biotinylated probe, 635/667 nm fluorescence (AID 1099);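 note: score merges 667nm spot fluorescence with signal to noise across triplicate slides; reference of the scale not given here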
- Condition summary: higher = more signal
Rule: composite z-score under 0.1 gives Not fulfilled, otherwise Fulfilled.

(Q) Quick check, composite z-score >= 0.1? `CCOC(=O)C[C@H]1[C@H](OC(=O)c2ccc(-c3ccccc3)cc2)[C@@H](NC(=O)CC(C)C)c2cc(OCCCO)ccc2N1C(=O)Cc1ccc(OC)cc1`
(A) Fulfilled

(Q) I'd appreciate it if you could say whether `COCCOC(=O)N1C(=O)[C@@]2(c3cc(C#CC4=CCCCC4)ccc31)[C@H](c1ccccc1OCCO)N1[C@H](c3ccccc3)[C@H](c3ccccc3)OC(=O)[C@H]1[C@@H]2C(N)=O` has composite z-score at least equal to 0.1.
(A) Not fulfilled

(Q) Has `CCCC=C(CCC)[C@@H](NC(=O)c1ccccc1)c1ccc(C(=O)OC)cc1` a recorded composite z-score greater than or equal to 0.1?
(A) Fulfilled

(Q) Evaluate `O=C(NCCO)C1=C[C@H](Oc2ccccc2I)[C@@H](O)[C@H](NCc2ccc(F)cc2)C1` : composite z-score at minimum 0.1?
(A) Not fulfilled

(Q) Form field: composite z-score at least 0.1? Entry: CC(c1ccccc1)C(O)C1C=CC2C(=O)N(c3ccccc3)C(=O)C2N1Nc1ccc(C#N)cc1 (stereo not drawn)
(A) Not fulfilled

(Q) Please check the record C[C@@H](OCc1ccccc1)C1NC(=O)[C@@]23C(=O)N[C@@H](Cc4ccccc4)C2[C@H](C)[C@@]2(C)O[C@H]2C3/C=C/C/C=C\CNC(=O)[C@H](Cc2ccccc2)NC1=O (stereo partly drawn) and state if its composite z-score is at or above 0.1.
(A) Not fulfilled
